# test_system: PI3Kα (Homo sapiens)
# Sequence (P42336 whole entry): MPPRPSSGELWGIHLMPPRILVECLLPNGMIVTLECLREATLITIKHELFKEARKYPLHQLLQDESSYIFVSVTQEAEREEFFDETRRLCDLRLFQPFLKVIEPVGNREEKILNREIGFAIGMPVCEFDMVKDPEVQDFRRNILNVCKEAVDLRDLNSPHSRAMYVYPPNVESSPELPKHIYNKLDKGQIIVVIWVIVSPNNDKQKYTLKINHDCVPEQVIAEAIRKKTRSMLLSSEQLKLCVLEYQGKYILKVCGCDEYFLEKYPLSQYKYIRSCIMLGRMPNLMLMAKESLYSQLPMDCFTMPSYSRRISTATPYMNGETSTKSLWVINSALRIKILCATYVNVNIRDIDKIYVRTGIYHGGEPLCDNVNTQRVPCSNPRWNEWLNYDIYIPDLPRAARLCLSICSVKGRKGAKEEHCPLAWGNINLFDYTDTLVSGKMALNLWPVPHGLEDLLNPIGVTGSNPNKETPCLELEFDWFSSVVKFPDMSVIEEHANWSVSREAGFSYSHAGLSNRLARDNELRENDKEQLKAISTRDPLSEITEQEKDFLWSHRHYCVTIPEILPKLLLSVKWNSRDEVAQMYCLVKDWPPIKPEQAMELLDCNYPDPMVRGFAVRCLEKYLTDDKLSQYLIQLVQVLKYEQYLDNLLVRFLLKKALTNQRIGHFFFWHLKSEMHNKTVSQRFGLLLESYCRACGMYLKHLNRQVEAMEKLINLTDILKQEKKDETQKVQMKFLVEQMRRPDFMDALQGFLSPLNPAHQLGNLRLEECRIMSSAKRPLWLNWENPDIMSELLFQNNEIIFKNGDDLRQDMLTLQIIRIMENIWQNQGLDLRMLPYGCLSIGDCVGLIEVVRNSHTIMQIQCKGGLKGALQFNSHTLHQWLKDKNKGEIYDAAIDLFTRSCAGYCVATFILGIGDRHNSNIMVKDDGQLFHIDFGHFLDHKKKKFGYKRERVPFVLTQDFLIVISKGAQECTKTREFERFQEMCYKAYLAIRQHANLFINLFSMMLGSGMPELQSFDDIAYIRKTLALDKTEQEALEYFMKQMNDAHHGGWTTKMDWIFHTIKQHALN
# test_details: PI3K enzyme inhibitory activity in the cell free assay (ADP-Glo Kinase Assay)
# experimental_conditions: human recombinant PI3Kα, ATP 50 μM; read-out: PI3K alpha inhibition
Structures can show the parent of a compound that is named as a salt.
recorded_metric: IC50

# compound, IC50
rows = [
    ("CC(c1oc(=O)c2ccccc2c1C1=CC(C)(C)NC(C)(C)C1)n1nc(-c2cncc(O)c2)c2c(N)ncnc21 (stereo not shown) [Example 145, dihydrochloride]", "10 to 1000 nM"),
    ("CC(c1oc(=O)c2ccccc2c1C1=CCNCC1)n1nc(-c2cc(O)cc(Cl)c2)c2c(N)ncnc21 (stereo not shown) [Example 152, formate]", "10 to 1000 nM"),
]

**Query** Would you kindly share the measured IC50 for Nc1ncnc2c1c(-c1cc(O)cc(F)c1)nn2CC1=C(c2ccccc2)c2ccccc2CO1 ?
**Result** > 1000 nM

**Query** Would you kindly share the measured IC50 for Cc1cccc(-c2c(C(C)n3nc(I)c4c(N)ncnc43)oc(=O)c3ccccc23)c1 (stereo not shown) ?
**Result** > 1000 nM

**Query** Would you kindly share the measured IC50 for CC(=O)N1CC=C(c2c(C(C)n3nc(-c4cc(O)cc(F)c4)c4c(N)ncnc43)oc(=O)c3ccccc23)CC1 (stereo not shown) ?
**Result** 10 to 1000 nM

**Query** Would you kindly share the measured IC50 for CC(NC(=O)c1c(N)nn2cccnc12)c1oc(=O)c2ccccc2c1-c1ccccc1 (stereo not shown) ?
**Result** 10 to 1000 nM

**Query** Would you kindly share the measured IC50 for CC(c1oc(=O)c2ccccc2c1C1=CCN(C2CN(CC3CC3)C2)CC1)n1nc(-c2cc(O)cc(F)c2)c2c(N)ncnc21 (stereo not shown) [Example 157, dihydrochloride] ?
**Result** > 1000 nM

====

# test_system: PI3Kγ (Homo sapiens)
# Sequence (P48736 whole entry): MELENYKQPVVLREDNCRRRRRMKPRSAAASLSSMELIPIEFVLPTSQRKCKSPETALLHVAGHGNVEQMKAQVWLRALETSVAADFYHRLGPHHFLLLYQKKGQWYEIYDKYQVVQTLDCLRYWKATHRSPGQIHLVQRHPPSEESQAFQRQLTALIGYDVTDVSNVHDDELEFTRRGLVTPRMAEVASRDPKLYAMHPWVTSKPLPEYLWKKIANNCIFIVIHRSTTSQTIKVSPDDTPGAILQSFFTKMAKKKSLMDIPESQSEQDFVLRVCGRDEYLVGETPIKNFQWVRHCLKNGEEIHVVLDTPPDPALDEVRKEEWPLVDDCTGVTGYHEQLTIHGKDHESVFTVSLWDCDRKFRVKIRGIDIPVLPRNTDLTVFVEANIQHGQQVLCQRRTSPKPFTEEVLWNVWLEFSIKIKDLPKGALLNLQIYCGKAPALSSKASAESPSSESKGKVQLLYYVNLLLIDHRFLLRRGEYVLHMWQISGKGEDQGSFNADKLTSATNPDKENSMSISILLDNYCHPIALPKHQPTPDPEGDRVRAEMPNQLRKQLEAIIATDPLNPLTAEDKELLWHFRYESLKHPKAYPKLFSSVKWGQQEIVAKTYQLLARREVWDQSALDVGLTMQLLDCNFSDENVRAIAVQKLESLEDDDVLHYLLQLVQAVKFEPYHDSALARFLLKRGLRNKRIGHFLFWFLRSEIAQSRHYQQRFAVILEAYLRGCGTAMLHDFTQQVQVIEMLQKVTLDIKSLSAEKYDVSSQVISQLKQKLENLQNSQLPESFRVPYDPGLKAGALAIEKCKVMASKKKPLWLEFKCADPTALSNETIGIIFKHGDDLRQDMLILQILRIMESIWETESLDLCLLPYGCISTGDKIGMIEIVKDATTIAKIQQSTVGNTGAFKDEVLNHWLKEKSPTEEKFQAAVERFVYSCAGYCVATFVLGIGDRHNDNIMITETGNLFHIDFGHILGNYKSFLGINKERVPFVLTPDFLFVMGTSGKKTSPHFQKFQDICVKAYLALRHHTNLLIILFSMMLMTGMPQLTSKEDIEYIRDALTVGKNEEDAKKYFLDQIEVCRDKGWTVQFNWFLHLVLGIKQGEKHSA
# test_details: PI3K enzyme inhibitory activity in the cell free assay (ADP-Glo Kinase Assay)
# experimental_conditions: human recombinant PI3Kγ, ATP 30 μM; read-out: PI3K gamma inhibition
pIC50: −log10 of the molar value. Structures can show the parent of a compound that is named as a salt.
Here the recorded pIC50 is given for each entry.

Check out these entries, answers already filled in.
# molecule, recorded_metric, result
records = [
    ("CC(Nc1ncnc(N)c1C#N)c1oc(=O)c2ccccc2c1-c1ccc(CN2CCOCC2)s1 (centres unmarked) [Example 82, hydrochloride]", "pIC50", "6.00 to 8.00"),
    ("Nc1ncnc2c1c(-c1cncc(O)c1)nn2CC1=C(c2ccccc2)c2ccccc2CO1", "pIC50", "< 6.00"),
    ("CC(c1oc(=O)c2ccccc2c1-c1ccccn1)n1nc(-c2cc(O)cc(F)c2)c2c(N)ncnc21 (centres unmarked) [Example 170, hydrochloride]", "pIC50", "6.00 to 8.00"),
]

**Query** Would you kindly share the measured pIC50 for CC(c1oc(=O)c2ccccc2c1-c1ccc(CN2CCCC2)cc1)n1nc(-c2cc(O)cc(F)c2)c2c(N)ncnc21 (centres unmarked) [Example 140, hydrochloride] ?
**Result** < 6.00

**Query** Would you kindly share the measured pIC50 for CC(c1oc(=O)c2ccccc2c1-c1ccc(CN2CCCC2)s1)n1nc(-c2cc(O)cc(F)c2)c2c(N)ncnc21 (centres unmarked) [Example 73, hydrochloride] ?
**Result** < 6.00
